Reported IC50 is given for each of the following molecules.
TARGET OR TEST SYSTEM: HIV integrase (Human immunodeficiency virus type 1 group M subtype B, UniProt P12497, F1332H)
Construct: HIV integrase full length gene
ASSAY NAME: Determination of enzyme (HIV integrase) inhibitory activity
EXPERIMENTAL SETUP: recombinant HIV integrase (F185H), strand transfer ELISA, absorbance at 450 nm
Structures can show the parent of a compound that is named as a salt.

Example entries begin here.
>  <MOLECULE>
CNC(=O)c1cc(F)ccc1CN1CCn2cc(-c3nccs3)c(=O)c(O)c2C1=O

>  <IC50>
0.1 to 1 µM

$$$$
>  <MOLECULE>
O=C1c2c(O)c(=O)c(-c3nccs3)cn2CCN1Cc1ccc(OCc2ccccc2)c(Cl)c1 [Example 356, hydrochloride]

>  <IC50>
0.01 to 0.1 µM

$$$$
>  <MOLECULE>
CC(=O)c1cc(=O)c(O)c2n1CCN(Cc1ccc(Cl)c(Cl)c1)C2=O

>  <IC50>
0.01 to 0.1 µM

$$$$
>  <MOLECULE>
O=c1ccn2ccn(Cc3ccc(Cl)c(Cl)c3)c(=O)c2c1O

>  <IC50>
< 0.01 µM

$$$$
>  <MOLECULE>
CCC(O)c1cn(Cc2ccc(Cl)c(Cl)c2)c(=O)c2c(O)c(=O)ccn12 (stereo not shown)

>  <IC50>
0.01 to 0.1 µM

$$$$
>  <MOLECULE>
COC(=O)c1cn(Cc2ccc(Cl)c(Cl)c2)c(=O)c2c(O)c(=O)ccn12

>  <IC50>
0.01 to 0.1 µM

$$$$
>  <MOLECULE>
CCCCC1CN(Cc2ccc(Cl)c(Cl)c2)C(=O)c2c(O)c(=O)ccn21 (stereo not shown)

>  <IC50>
0.01 to 0.1 µM

$$$$
>  <MOLECULE>
COc1c(Cl)cccc1Cn1ccn2ccc(=O)c(O)c2c1=O [Example 168, hydrochloride]

>  <IC50>
0.01 to 0.1 µM

$$$$
>  <MOLECULE>
CS(=O)(=O)Nc1cn2c(c(O)c1=O)C(=O)N(Cc1ccc(F)c(Cl)c1)CC2

>  <IC50>
< 0.01 µM

$$$$
>  <MOLECULE>
COc1ccc(-c2cn3ccn(Cc4cccc(Cl)c4)c(=O)c3c(O)c2=O)cc1 [Example 133, hydrochloride]

>  <IC50>
< 0.01 µM

$$$$

Field IC50 (entry `O=c1ccn2ccn(CCCc3cc(Cl)cc(Cl)c3)c(=O)c2c1O` ) reads 0.01 to 0.1 µM

Just so you know, measured IC50 for CC(C)c1cn(Cc2cccc(Cl)c2)c(=O)c2c(O)c(=O)c(Br)cn12 [Example 129, hydrochloride] came out at 0.01 to 0.1 µM

Entry CCc1cn2ccn(Cc3cccc(Cl)c3)c(=O)c2c(O)c1=O [Example 134, hydrochloride] ; IC50 = 0.01 to 0.1 µM

// IC50 value for `CCNC(=O)c1cn2ccn(Cc3ccc(F)cc3)c(=O)c2c(O)c1=O` : 0.01 to 0.1 µM

Lab note: measured IC50 of O=C(Cc1ccccn1)Nc1cn2ccn(Cc3cccc(Cl)c3)c(=O)c2c(O)c1=O [Example 402, hydrochloride] was 0.01 to 0.1 µM

Reported IC50 of `COC(=O)Cc1cn2ccn(Cc3cccc(Cl)c3)c(=O)c2c(O)c1=O` : 0.01 to 0.1 µM

Lab note: Nc1cn2ccn(Cc3cccc(Cl)c3)c(=O)c2c(O)c1=O [Example 161, hydrochloride] gave IC50 of 0.01 to 0.1 µM

Per the record, CC(C)(C)C(=O)c1cn2ccn(Cc3cccc(F)c3)c(=O)c2c(O)c1=O [Example 376, hydrochloride] has IC50 of 0.01 to 0.1 µM

The value of IC50 measured for the molecule `CC(C)OC(=O)c1cn2ccn(Cc3cccc(Cl)c3)c(=O)c2c(O)c1=O` turned out to be 0.01 to 0.1 µM

// CCCCC1Cn2ccc(=O)c(O)c2C(=O)N1Cc1ccc(Cl)c(Cl)c1 (stereo not shown) : IC50 value = 0.01 to 0.1 µM

For this molecule ( `CC(=O)N(CC(C)C)c1cn2ccn(Cc3cccc(Cl)c3)c(=O)c2c(O)c1=O` ), measured IC50 is 0.01 to 0.1 µM

Recorded result, O=C1c2c(O)c(=O)ccn2CC(Cc2ccccc2)N1Cc1ccc(Cl)c(Cl)c1 (stereo not shown) , IC50: 0.01 to 0.1 µM

Recorded result, CC(=O)Nc1cc(F)ccc1CN1CCn2cc(-c3nccs3)c(=O)c(O)c2C1=O [Example 366, hydrochloride] , IC50: 0.1 to 1 µM

Documented IC50 of CC(O)c1cc(=O)c(O)c2n1CCN(Cc1ccc(Cl)c(Cl)c1)C2=O (stereo not shown) : 0.01 to 0.1 µM

Record `CS(=O)(=O)Nc1cn2ccn(Cc3cccc(Cl)c3)c(=O)c2c(O)c1=O` , field IC50: < 0.01 µM
